- assayed-system: cyclin-dependent kinase 12 (Homo sapiens (Human), UniProt Q9NYV4)
- Sequence (Q9NYV4 whole entry): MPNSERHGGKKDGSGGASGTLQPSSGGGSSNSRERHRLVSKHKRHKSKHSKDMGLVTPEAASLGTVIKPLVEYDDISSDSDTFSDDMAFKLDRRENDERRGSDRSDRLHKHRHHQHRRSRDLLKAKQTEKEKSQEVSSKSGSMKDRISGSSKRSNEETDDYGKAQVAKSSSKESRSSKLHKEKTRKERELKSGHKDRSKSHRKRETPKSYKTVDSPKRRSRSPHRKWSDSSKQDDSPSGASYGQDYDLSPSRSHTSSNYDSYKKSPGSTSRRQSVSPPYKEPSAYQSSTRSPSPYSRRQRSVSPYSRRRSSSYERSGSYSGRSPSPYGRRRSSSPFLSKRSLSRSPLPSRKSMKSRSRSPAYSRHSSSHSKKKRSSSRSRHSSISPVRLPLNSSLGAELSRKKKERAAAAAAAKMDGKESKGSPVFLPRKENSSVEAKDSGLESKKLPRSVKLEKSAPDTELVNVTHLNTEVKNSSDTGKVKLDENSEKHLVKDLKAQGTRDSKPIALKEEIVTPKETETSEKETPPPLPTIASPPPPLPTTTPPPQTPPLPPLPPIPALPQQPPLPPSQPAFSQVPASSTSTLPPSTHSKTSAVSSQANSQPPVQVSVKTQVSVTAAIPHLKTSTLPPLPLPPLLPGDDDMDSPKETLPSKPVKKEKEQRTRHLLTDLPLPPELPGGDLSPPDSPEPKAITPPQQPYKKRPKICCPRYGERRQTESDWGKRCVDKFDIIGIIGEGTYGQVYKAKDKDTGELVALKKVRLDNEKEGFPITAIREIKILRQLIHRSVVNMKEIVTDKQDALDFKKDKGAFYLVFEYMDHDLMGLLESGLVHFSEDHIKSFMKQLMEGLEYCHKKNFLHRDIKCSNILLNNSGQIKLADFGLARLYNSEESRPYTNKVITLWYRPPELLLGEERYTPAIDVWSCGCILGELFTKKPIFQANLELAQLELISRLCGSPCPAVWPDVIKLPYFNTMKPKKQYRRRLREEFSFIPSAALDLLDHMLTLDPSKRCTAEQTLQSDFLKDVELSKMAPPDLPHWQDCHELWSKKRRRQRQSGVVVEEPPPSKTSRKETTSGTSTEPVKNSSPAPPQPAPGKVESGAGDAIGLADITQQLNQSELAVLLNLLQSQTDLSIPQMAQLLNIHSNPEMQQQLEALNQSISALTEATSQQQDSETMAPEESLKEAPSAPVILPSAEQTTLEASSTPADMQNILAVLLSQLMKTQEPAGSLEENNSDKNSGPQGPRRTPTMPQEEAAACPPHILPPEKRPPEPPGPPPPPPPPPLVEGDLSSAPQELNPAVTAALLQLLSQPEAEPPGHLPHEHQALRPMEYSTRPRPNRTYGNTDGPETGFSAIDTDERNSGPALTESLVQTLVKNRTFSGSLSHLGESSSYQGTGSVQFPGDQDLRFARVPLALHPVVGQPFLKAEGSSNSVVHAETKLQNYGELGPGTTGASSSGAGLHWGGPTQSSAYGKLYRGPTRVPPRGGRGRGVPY
- Sequence (O75909 whole entry partner): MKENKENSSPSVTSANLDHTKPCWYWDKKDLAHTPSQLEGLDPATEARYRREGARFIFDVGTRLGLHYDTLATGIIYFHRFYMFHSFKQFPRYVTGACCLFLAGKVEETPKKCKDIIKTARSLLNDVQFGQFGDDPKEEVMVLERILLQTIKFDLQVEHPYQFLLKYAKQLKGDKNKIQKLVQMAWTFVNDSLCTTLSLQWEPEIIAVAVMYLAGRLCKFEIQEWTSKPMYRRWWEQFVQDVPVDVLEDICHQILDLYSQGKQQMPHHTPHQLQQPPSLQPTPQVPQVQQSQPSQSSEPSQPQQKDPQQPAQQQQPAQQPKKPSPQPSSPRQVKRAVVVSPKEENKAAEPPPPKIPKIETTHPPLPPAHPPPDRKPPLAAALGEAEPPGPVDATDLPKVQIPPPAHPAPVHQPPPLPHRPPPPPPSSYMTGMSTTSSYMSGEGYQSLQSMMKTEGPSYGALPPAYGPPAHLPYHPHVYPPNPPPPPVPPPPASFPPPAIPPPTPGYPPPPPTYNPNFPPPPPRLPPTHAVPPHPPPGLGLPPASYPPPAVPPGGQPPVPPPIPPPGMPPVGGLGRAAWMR
Please provide measured pIC50 for the entries that follow.
Reminder that pIC50 is minus the log10 of a molar concentration.

pIC50 reported for this compound Cn1cc(-c2cnn3c(NCc4nc5cccc(Cl)c5[nH]4)nc(N4CCOCC4)nc23)cn1 [Compound 12] : 6.54

Form: compound = Fc1cccc2nc(CNc3nc(N4CCOCC4)nc4c(-c5cnn(C(F)F)c5)cnn34)[nH]c12 [Compound 8] ; pIC50 = 7.36
